system: giant foxtail (Setaria faberii); assay: Test B pre-/postemergence; type: in vivo; set-up: key: 0 is no effect; 10 is complete control; conditions: Rate 125 g/ha, Preemergence
test.readout: Giant foxtail plant response rating
Give your answer as a number; write no unit.

Worked cases, Giant foxtail plant response rating given:
Cc1cnc(-c2ccc(C(F)(F)F)cc2)nc1Cc1cccc(C(F)(F)F)c1 ... 10
COc1cnc(-n2ccc(C(F)(F)F)n2)nc1Cc1cccc(C(F)(F)F)c1 ... 0
Cc1cnc(-c2ccc(C(F)(F)F)cc2)nc1C(C#N)c1cccc(C(F)(F)F)c1 (racemic) ... 10
Cc1cnc(-c2ccc(Cl)cc2F)nc1Cc1cccc(C(F)(F)F)c1 ... 4

Next compound, please.
Form field Giant foxtail plant response rating, entry `Cc1cnc(-c2ccc(C(F)(F)F)cc2)nc1Cn1cnc(C(F)(F)F)c1` : 7
